Numbers sourced from patent EP4778920A1.

- Test system: MM.1S cells
- Procedure details: MM.1S cell proliferation inhibition (MTS assay)
- Assay type: cell-based
- Experimental parameters: Homo sapiens, MM1.S, 168 h, 7 days incubation, read-out: MM1.S (IC50, Inhibitory Activity of Compounds on MM.1S Cell Proliferation)
Measurement name: IC50

In: Lab note: need IC50 with MM.1S cells for entry CC(C)(C)NC(=O)c1ccc2c(=O)n(C3CCC(=O)NC3=O)[nH]c2c1 (stereo not shown) [Compound D40] , please look it up.
Out: > 10 µM

---

Below: a set of entries, each annotated with reported inhibition at 1 µM.
- System under test: CRBN/DDB1 (Homo sapiens)
- Sequence (Q96SW2 whole entry, species assumed): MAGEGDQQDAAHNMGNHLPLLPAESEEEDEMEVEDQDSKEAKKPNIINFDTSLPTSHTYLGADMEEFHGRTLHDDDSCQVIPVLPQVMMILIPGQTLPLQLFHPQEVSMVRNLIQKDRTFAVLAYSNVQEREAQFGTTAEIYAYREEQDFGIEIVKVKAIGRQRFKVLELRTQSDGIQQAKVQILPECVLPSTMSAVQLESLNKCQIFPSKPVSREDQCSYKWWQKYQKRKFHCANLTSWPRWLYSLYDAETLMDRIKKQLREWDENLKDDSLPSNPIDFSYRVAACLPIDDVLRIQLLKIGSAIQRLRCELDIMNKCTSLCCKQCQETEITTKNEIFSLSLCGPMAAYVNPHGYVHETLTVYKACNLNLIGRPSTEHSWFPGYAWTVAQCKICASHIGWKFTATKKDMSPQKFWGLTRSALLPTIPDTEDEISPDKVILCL
- Sequence (Q16531 whole entry partner, species assumed): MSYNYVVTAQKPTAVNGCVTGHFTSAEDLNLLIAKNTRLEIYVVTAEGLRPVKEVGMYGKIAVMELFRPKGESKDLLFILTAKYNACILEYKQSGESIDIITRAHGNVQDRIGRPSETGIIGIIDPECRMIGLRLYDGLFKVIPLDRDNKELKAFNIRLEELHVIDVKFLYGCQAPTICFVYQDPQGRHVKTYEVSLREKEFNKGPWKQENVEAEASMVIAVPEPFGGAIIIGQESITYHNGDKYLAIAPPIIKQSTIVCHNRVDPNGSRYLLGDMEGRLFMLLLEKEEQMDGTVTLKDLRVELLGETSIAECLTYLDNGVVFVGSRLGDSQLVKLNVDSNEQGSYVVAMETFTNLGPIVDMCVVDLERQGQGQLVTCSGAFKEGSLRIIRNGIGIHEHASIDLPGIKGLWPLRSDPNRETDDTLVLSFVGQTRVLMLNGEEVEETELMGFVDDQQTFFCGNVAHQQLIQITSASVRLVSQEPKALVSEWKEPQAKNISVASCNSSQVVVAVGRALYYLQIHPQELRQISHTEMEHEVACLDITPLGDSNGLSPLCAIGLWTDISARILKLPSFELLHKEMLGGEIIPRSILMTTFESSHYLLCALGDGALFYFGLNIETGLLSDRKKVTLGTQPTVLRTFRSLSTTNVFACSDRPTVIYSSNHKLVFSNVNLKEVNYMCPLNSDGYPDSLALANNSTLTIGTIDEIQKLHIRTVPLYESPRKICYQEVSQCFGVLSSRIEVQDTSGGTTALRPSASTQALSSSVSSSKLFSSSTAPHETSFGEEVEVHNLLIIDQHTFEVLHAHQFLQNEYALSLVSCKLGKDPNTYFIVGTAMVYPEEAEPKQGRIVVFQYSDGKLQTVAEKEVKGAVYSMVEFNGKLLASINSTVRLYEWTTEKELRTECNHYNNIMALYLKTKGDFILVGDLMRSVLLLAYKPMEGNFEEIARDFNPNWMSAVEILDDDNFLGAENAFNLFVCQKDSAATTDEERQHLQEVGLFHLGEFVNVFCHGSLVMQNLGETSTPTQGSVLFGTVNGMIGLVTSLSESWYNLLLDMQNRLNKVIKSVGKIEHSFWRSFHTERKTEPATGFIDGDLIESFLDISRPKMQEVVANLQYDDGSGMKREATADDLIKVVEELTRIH
- Procedure details: CRBN/DDB1 binding TR-FRET assay
- Experimental parameters: read-out: AVE_Inhibition% (1 µM)

A selection of reference data follows.
{"Molecule": "O=C1CCC(n2[nH]c3cc(C(=O)NCc4ccccc4)ccc3c2=O)C(=O)N1 (centres unmarked)", "inhibition at 1 µM": "< 50%"}
{"Molecule": "O=C1CCC(n2[nH]c3c(OCc4ccc(CN5CCN(c6ccc(F)cc6F)CC5)cc4)cc(F)cc3c2=O)C(=O)N1 (centres unmarked)", "inhibition at 1 µM": "50 to 90%"}
{"Molecule": "O=C1CCC(n2[nH]c3c(OCc4ccc(CN5CCN(c6ccc(F)cc6)CC5)cc4)cccc3c2=O)C(=O)N1 (centres unmarked)", "inhibition at 1 µM": "> 90%"}
{"Molecule": "N#Cc1ccc(N2CCN(Cc3ccc(COc4cccc5c(=O)n([C@H]6CCC(=O)NC6=O)[nH]c45)cc3)CC2)c(F)c1 [Compound D2]", "inhibition at 1 µM": "> 90%"}
{"Molecule": "N#Cc1ccc(N2CCN(C(=O)c3ccc(COc4cccc5c(=O)n(C6CCC(=O)NC6=O)[nH]c45)cc3)CC2)c(F)c1 (centres unmarked)", "inhibition at 1 µM": "> 90%"}

In: Lab note: need inhibition at 1 µM with CRBN/DDB1 (Homo sapiens) for entry O=C1CC[C@H](n2[nH]c3c(OCc4ccc(CN5CCOCC5)cc4)cccc3c2=O)C(=O)N1 [Compound D1] , please look it up.
Out: 50 to 90%

In: Lab note: need inhibition at 1 µM with CRBN/DDB1 (Homo sapiens) for entry O=C1CCC(n2[nH]c3c(OCc4ccc(CN5CCN(c6ccc(Cl)cc6)CC5)cc4)cc(F)cc3c2=O)C(=O)N1 (centres unmarked) , please look it up.
Out: > 90%

In: Lab note: need inhibition at 1 µM with CRBN/DDB1 (Homo sapiens) for entry O=C1CCC(n2[nH]c3c(OCc4ccc(CN5CCN(c6cccc(Cl)c6)CC5)cc4)cccc3c2=O)C(=O)N1 (centres unmarked) , please look it up.
Out: > 90%

In: Lab note: need inhibition at 1 µM with CRBN/DDB1 (Homo sapiens) for entry O=C1CCC(n2[nH]c3c(OCc4ccc(CN5CCN(c6ccc(F)cc6)CC5)cc4)cc(F)cc3c2=O)C(=O)N1 (centres unmarked) , please look it up.
Out: > 90%

In: Lab note: need inhibition at 1 µM with CRBN/DDB1 (Homo sapiens) for entry CCc1ccc([C@H](C)NC(=O)c2ccc3c(=O)n(C4CCC(=O)NC4=O)[nH]c3c2)cc1 (some centres unmarked) , please look it up.
Out: < 50%

In: Lab note: need inhibition at 1 µM with CRBN/DDB1 (Homo sapiens) for entry N#Cc1ccc(N2CCN(Cc3ccc(COc4cc(F)cc5c(=O)n(C6CCC(=O)NC6=O)[nH]c45)cc3)CC2)c(F)c1 (centres unmarked) , please look it up.
Out: > 90%

In: Lab note: need inhibition at 1 µM with CRBN/DDB1 (Homo sapiens) for entry O=C1CCC(n2[nH]c3c(OCc4ccc(CN5CCN(c6ccc(Cl)cc6)CC5)cc4)cccc3c2=O)C(=O)N1 (centres unmarked) , please look it up.
Out: > 90%

In: Lab note: need inhibition at 1 µM with CRBN/DDB1 (Homo sapiens) for entry Cc1ccc(N2CCN(C(=O)c3ccc(COc4cccc5c(=O)n(C6CCC(=O)NC6=O)[nH]c45)cc3)CC2)c(F)c1 (centres unmarked) , please look it up.
Out: 50 to 90%

In: Lab note: need inhibition at 1 µM with CRBN/DDB1 (Homo sapiens) for entry CC(C)(C)NC(=O)c1ccc2c(=O)n(C3CCC(=O)NC3=O)[nH]c2c1 (centres unmarked) , please look it up.
Out: < 50%
